The measured values listed here are drawn from patent US5891877A.

- Study target: UniProt:P05121
- Sequence (P05121 24-402): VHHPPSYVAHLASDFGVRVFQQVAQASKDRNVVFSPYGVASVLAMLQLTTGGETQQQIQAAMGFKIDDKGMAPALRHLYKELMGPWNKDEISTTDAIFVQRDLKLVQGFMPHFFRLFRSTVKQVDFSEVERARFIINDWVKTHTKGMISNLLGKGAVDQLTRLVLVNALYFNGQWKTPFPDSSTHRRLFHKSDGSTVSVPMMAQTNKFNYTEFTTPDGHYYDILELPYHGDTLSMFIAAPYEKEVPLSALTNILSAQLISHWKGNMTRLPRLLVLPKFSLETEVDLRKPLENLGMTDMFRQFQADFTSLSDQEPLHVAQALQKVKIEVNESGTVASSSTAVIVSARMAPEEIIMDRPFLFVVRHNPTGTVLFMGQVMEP
- Protocol text: PAI-1 inhibition in the S2251 chromogenic substrate assay (PAI functional assay)
- Type: biochemical
- Run parameters: 100 μm; Table 1, first part; unit assumed
Reported metric: INHIBITION OF PAI-1 (degree of inhibition) (%)

These recorded examples may help you get a feel for the data.
CC(C)(C)OC(=O)n1cc(/C=c2\[nH]c(=O)/c(=C/c3cccs3)[nH]c2=O)c2ccccc21 | 51
COc1ccc(/C=c2\[nH]c(=O)/c(=C/c3cccn3C(=O)OC(C)(C)C)[nH]c2=O)cc1 | 78
O=c1[nH]/c(=C\c2ccccc2)c(=O)[nH]/c1=C\C=Cc1ccc([N+](=O)[O-])cc1 | 38
O=c1[nH]/c(=C\c2c[nH]c3ccccc23)c(=O)[nH]/c1=C\c1ccccc1 | 58

a = O=c1[nH]/c(=C\c2ccc3c(c2)OCO3)c(=O)[nH]/c1=C\c1ccccc1
b = CN1CCC(N(C)Cc2ccc(/C=c3\[nH]c(=O)/c(=C/c4ccccc4)[nH]c3=O)cc2)CC1
Consider entries a and b . Which has the numerically lower INHIBITION OF PAI-1 (degree of inhibition)? Output the label that corresponds to your choice.
b
